Test system Mineralocorticoid receptor (Homo sapiens, UniProt P08235), pIC50 listed for each of the molecules.
Scale: negative log10 of molar concentration, which is what pIC50 denotes.

Here's what some known entries look like.
>>> experimental_result("COc1cccc2c1-c1ccc(NS(C)(=O)=O)cc1C(c1ccccc1)O2 (stereo unspecified)")
4.64
>>> experimental_result("COc1cccc2c1-c1ccc(NS(C)(=O)=O)cc1C(c1cccs1)O2 (stereo unspecified)")
5.65
>>> experimental_result("COc1cccc2c1-c1ccc(NS(C)(=O)=O)cc1C(c1ccc(C)cc1)O2 (stereo unspecified)")
6.19
>>> experimental_result("COc1cccc2c1-c1ccc(NS(C)(=O)=O)cc1C(c1cccc(F)c1)O2 (stereo unspecified)")
6.17
>>> experimental_result("COc1cccc2c1-c1ccc(NS(C)(=O)=O)cc1C(c1cc(C)cc(C)c1)O2 (stereo unspecified)")
5.91

Prompt line: Record COc1cccc2c1-c1ccc(NS(C)(=O)=O)cc1C(c1ccc(F)cc1)O2 (stereo unspecified) : what is its pIC50 with Mineralocorticoid receptor (Homo sapiens, UniProt P08235)?
Response line: 5.60
